- Read-out: solute carrier (SLC22A1), SLC22A1 (gene 6580)
- ASSAY INFO: LTEA_HepaRG_SLC22A1: Life Technologies and Expression Analysis (LTEA) Assay for solute carrier (SLC22A1) using HepaRG (AID 2283524)
- CONDITION DESCRIPTION: mRNA level, 48 h; actives raise or lower the signal
Calls of active or inactive are those of the source. How the source made its calls: active means hit-call score of the fitted dose curve at least 0.9, where 1 is the maximum; inactive means score below 0.9.
Your answer must be one of the following: active, inactive

In [3]: df
Out[3]:
                              sample_smiles  class_label
0                        Cc1ncc(CO)c(CO)c1O     inactive
1  CN(C)C(=O)C1(N2CCCCC2)CCN(CC[C@@]2(c3ccc(Cl)c(Cl)c3)CN(C(=O)c3ccccc3)CCO2)CC1       active
2                          O=C=NCCCCCCN=C=O     inactive
3            Cc1c2ccccc2c(C)c2c1ccc1ccccc12       active
4  O=C(O)c1ccccc1-n1cc(C(=O)O)c(=O)c2cc(Nc3c(F)cc(F)cc3Cl)c(Cl)cc21     inactive
5  Cc1cn([C@H]2C[C@H](N=[N+]=[N-])[C@@H](CO)O2)c(=O)[nH]c1=O     inactive
6  CC(C)(O)c1ccc(CNC(=O)c2cccnc2Oc2ccc3nonc3c2)cc1     inactive
7                  CN1C(=O)CC[C@H]1c1cccnc1     inactive

Hi, sorry to bother you, what did the test record for `CCCCOC(=O)CC(CC(=O)OCCCC)(OC(C)=O)C(=O)OCCCC` ?
inactive

Hi, sorry to bother you, what did the test record for `Cc1cc(F)ccc1-c1cc(N2CC[C@@H](O)[C@H]2CO)ncc1N(C)C(=O)C(C)(C)c1cc(C(F)(F)F)cc(C(F)(F)F)c1` ?
active

Hi, sorry to bother you, what did the test record for `CCCCCCCCCCCCO` ?
inactive

###

- MEASURED ON: human Dopamine Receptor D2 (DRD2), DRD2 (gene 1813)
- ASSAY INFO: NVS_GPCR_hDRD2s: NovaScreen (NVS) G Protein-Coupled Receptor Assay for human Dopamine Receptor D2 (DRD2) (AID 2283266)
Records with an inconclusive call do not appear. The source made the active and inactive calls. Rule for the calls: active = hit-call score of the fitted dose curve at least 0.9, where 1 is the maximum; inconclusive = response in the unintended direction; inactive = score below 0.9.
Your answer must be one of the following: YES = active, NO = inactive

Field: example entries. Status: answers known.
>>> df
                              sample_smiles  class_label
0       O=C(Nc1ccc(Cl)cc1)Nc1ccc(Cl)c(Cl)c1           NO
1  CCN(Cc1cccnc1)C(=O)c1cccc(Cl)c1[C@]1(C)C(=O)N(Cc2ccc(OC)cc2OC)c2ccc(Cl)cc21          YES
2  CN(C)c1ccc(C(=C2C=CC(=[N+](C)C)C=C2)c2ccc(N(C)C)cc2)cc1          YES
3  O=C1c2ccccc2C(=O)N1CCc1noc(-c2ccc(CN3CCCCCC3)s2)n1          YES
4  CN(C)C(=O)C1(N2CCCCC2)CCN(CC[C@@]2(c3ccc(Cl)c(Cl)c3)CN(C(=O)c3ccccc3)CCO2)CC1          YES

Let us examine a further case.
Hi, sorry to bother you, what did the test record for `CCCCCCCCN(C)CCCCCCCC` ?
NO

###

- Read-out: Monokine induced gamma interferon (MIG), CXCL9 (gene 4283)
- ASSAY INFO: BSK_hDFCGF_MIG: BioMAP Diversity Plus: hDFCGF Assay for Monokine induced gamma interferon (MIG) Biomarker Activity (AID 2283063)
- CONDITION DESCRIPTION: primary human foreskin fibroblasts; actives raise or lower the signal
Calls of active or inactive are those of the source. Rule for the calls: active = hit-call score of the fitted dose curve at least 0.9, where 1 is the maximum; inactive = score below 0.9.
REPORTED ENDPOINT: AC50

Examples with answers:
>>> print(df.to_string())
                                   compound    result
0         CC(O)CC(C)(C)O (stereo not given)  inactive
1  COc1cccc([C@H](O)C2CCN(CCc3ccc(F)cc3)CC2)c1OC  inactive
2    O=C(O)Cc1cc(I)c(Oc2ccc(O)c(I)c2)c(I)c1  inactive
3  CCCCOC(=O)CC(CC(=O)OCCCC)(OC(C)=O)C(=O)OCCCC  inactive
4   COCC(C)OCC(C)OCC(C)O (stereo not given)  inactive

State, in one line, measured AC50 of `CCCCCCCC[Si](OCC)(OCC)OCC`
inactive

State, in one line, measured AC50 of `CC(C)(C)c1cc(/C=C2\SC(N)=NC2=O)cc(C(C)(C)C)c1O`
14.2 µM (active)

State, in one line, measured AC50 of `CCCCCCCCCCCO`
32.1 µM (active)

State, in one line, measured AC50 of `OCCO`
inactive

State, in one line, measured AC50 of `CC(C)(O)c1ccc(CNC(=O)c2cccnc2Oc2ccc3nonc3c2)cc1`
inactive

###

- Read-out: Transforming Growth Factor (TGFB1), TGFB1 (gene 7040)
- ASSAY INFO: LTEA_HepaRG_TGFB1: Life Technologies and Expression Analysis (LTEA) Assay for Transforming Growth Factor (TGFB1) Transporter using HepaRG (AID 2283533)
- CONDITION DESCRIPTION: mRNA level, 48 h; actives raise or lower the signal
Calls of active or inactive are those of the source. How the source made its calls: active means hit-call score of the fitted dose curve at least 0.9, where 1 is the maximum; inactive means score below 0.9.
Your answer must be one of the following: 1.0 for active, 0.0 for inactive

COMPOUND	CLASS LABEL
CC(C)(c1cc(Br)c(O)c(Br)c1)c1cc(Br)c(O)c(Br)c1	0.0
CC[C@@H]1C[C@H](N(Cc2cc(C(F)(F)F)cc(C(F)(F)F)c2)C(C)=O)c2cc(C(F)(F)F)ccc2N1C(=O)OC(C)C	0.0
COc1cccc([C@H](O)C2CCN(CCc3ccc(F)cc3)CC2)c1OC	0.0

Hi, sorry to bother you, what did the test record for `Oc1ccc2ccccc2c1` ?
0.0

Hi, sorry to bother you, what did the test record for `O=c1ccc2ccccc2o1` ?
0.0

Hi, sorry to bother you, what did the test record for `CCCCCCCCCCCCO` ?
0.0

###

- MEASURED ON: guinea pig Opioid, Kappa 1 Receptor (OpiateK), OPRK1 (gene 100135587)
- ASSAY INFO: NVS_GPCR_gOpiateK: NovaScreen (NVS) G Protein-Coupled Receptor Assay for guinea pig Opioid, Kappa 1 Receptor (OpiateK) (AID 2283252);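 further: radioligand displacement from kappa opioid receptor in guinea pig cerebellar membranes; active means reduced radioligand binding relative to DMSO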
- Protocol: NVS_GPCR_gOpiateK is a biochemical, single-readout assay that uses extracted gene-proteins from Guinea pig cerebellar membranes in a tissue-based cell-free assay. Measurements were taken 2 hours after chemical dosing in a 48-well plate.NVS_GPCR_gOpiateK is one of one assay component(s) measured or calculated from the NVS_GPCR_gOpiateK assay. […] Furthermore, this assay endpoint can be referred to as a primary readout, because the performed assay has only produced 1 assay endpoint. […]
Records with an inconclusive call do not appear. The source made the active and inactive calls. How the source made its calls: active means hit-call score of the fitted dose curve at least 0.9, where 1 is the maximum; inconclusive means response in the unintended direction; inactive means score below 0.9.
Your answer must be one of the following: label 1 = active, label 0 = inactive

Field: example entries. Status: answers known.
>>> print(df.to_string())
                              sample_smiles  class_label
0                     CCCCOC(=O)c1ccc(O)cc1      label 0
1            Clc1cc(Cl)c2c(c1)N=C1CCCCCN1C2      label 1
2  CCN(Cc1cccnc1)C(=O)c1cccc(Cl)c1[C@]1(C)C(=O)N(Cc2ccc(OC)cc2OC)c2ccc(Cl)cc21      label 1
3  O=C1c2ccccc2C(=O)N1CCc1noc(-c2ccc(CN3CCCCCC3)s2)n1      label 0
4  CN(C)c1ccc(C(=C2C=CC(=[N+](C)C)C=C2)c2ccc(N(C)C)cc2)cc1      label 1

Let us examine a further case.
Hi, sorry to bother you, what did the test record for `CCN(CC)C(=O)c1cc(S(=O)(=O)Cc2ccccc2)c(N2CCC(c3ccccc3)CC2)cc1N(CC)CCN(C)C` ?
label 1

###

- MEASURED ON: rabbit Imidazoline 2 Central (I2C), CKB (gene 100009085)
- ASSAY INFO: NVS_ENZ_rabI2C: NovaScreen (NVS) Enzymatic Assay for rabbit Imidazoline 2 Central (I2C) (AID 2283228)
Inconclusive results are not listed. Active and inactive are the calls of the source. How the source made its calls: active means hit-call score of the fitted dose curve at least 0.9, where 1 is the maximum; inconclusive means response in the unintended direction; inactive means score below 0.9.
Your answer must be one of the following: active, inactive

>>> print(df.to_string())
                              sample_smiles                               measured_on  class_label
0            Clc1cc(Cl)c2c(c1)N=C1CCCCCN1C2  rabbit Imidazoline 2 Central (I2C), CKB (gene 100009085)       active
1  Cc1oc2c(NC(=O)c3c(Cl)cccc3Cl)cccc2c1C(C)(C)O  rabbit Imidazoline 2 Central (I2C), CKB (gene 100009085)     inactive
2  NCc1cccc(C2CCN(C(=O)c3ccc(C#Cc4ccccc4F)o3)CC2)c1  rabbit Imidazoline 2 Central (I2C), CKB (gene 100009085)       active
3  COc1cccc([C@H](O)C2CCN(CCc3ccc(F)cc3)CC2)c1OC  rabbit Imidazoline 2 Central (I2C), CKB (gene 100009085)       active
4  O=C1c2ccccc2C(=O)N1CCc1noc(-c2ccc(CN3CCCCCC3)s2)n1  rabbit Imidazoline 2 Central (I2C), CKB (gene 100009085)       active

Let us examine a further case.
Hi, sorry to bother you, what did the test record for `CCCCCCCCCCCC[N+](C)(C)C` ?
active

Where do the numbers come from? From PubChem BioAssay (EPA / NIEHS).
